pIC50 values recorded for calf striatum (specific binding of [^3 H] spiroperidol on the receptor) (Bos taurus)
Structures can show the parent of a compound that is named as a salt.
// pIC50 is dimensionless: -log10 of concentration (M)

Lookup: Recorded pIC50 of Cc1cc2[nH]c(=O)n([C@@H]3CCN4C[C@@H](c5ccccc5Cl)CC[C@@H]4C3)c2cc1C (relative stereo) [HCl] , please.
Found: 8.30

Lookup: Recorded pIC50 of O=c1[nH]c2cc(C(F)(F)F)ccc2n1[C@@H]1CCN2C[C@@H](c3ccccc3Cl)CC[C@@H]2C1 (relative stereo) [HCl] , please.
Found: 8.00

Lookup: Recorded pIC50 of CC(C)(C)[C@]1(O)CCN2C[C@@H](c3ccc(Cl)cc3Cl)CC[C@@H]2C1 [HCl] , please.
Found: 7.39

Lookup: Recorded pIC50 of CC(C)(C)[C@]1(O)CCN2C[C@@H](c3ccc(Cl)cc3Cl)CC[C@@H]2C1 (relative stereo) [HCl] , please.
Found: 7.10
